Values compiled from patent US12440473B2.

Recorded measurements of Emax, one per entry
# assay-system: full length human PPAR-γ (Homo sapiens, UniProt P37231)
# Construct: host or cells: Chinese hamster ovary (CHO) cell lines
# Sequence (P37231 whole entry): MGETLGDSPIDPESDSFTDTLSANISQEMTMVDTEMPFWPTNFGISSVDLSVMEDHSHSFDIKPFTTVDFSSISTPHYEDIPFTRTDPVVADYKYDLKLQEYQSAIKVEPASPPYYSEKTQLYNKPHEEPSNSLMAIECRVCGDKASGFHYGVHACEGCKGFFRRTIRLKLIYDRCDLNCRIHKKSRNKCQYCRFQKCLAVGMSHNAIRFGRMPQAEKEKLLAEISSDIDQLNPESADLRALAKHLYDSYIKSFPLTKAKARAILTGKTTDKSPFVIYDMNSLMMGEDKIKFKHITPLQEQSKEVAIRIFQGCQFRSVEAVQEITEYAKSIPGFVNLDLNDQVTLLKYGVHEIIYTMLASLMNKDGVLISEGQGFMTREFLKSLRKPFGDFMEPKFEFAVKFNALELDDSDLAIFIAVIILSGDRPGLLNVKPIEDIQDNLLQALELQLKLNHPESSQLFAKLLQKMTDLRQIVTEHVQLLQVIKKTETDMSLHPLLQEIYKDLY
# assay-overview: PathHunter NHR Protein Interaction assay, PPAR-γ agonist activity (CHO cells)
# Type: cell-based
# recorded-conditions: CHO; PPAR-gamma; free fatty acid form; normalized to control compound (Troglitazone); read-out: Maximum Response
State just the number; it will be interpreted in %.

Recorded results for 3 molecules are shown here.
CCCCCCCCCCCCCCC(=O)O; 7
CCCCCCCCCCCCCCCC(=O)O [C16:0, palmitic acid, reference compound]; 4.7
CCCCCCCCCCCCCCCCC(=O)O; 1

Kindly review the next molecule as well.
-- ask Fill: Emax (full length human PPAR-γ (Homo sapiens, UniProt P37231)) for this molecule CCCCCCCCCCCCCC(=O)O [C14:0, myristic acid, reference compound]
-- reply 19
